The measurements presented in this section are drawn from paper PMC6450887.

# MEASUREMENT_NOTES: Stability in simulated intestinal fluid (SIF), RP-HPLC
# Type: in vitro ADME
# APPLIED_CONDITIONS: simulated intestinal fluid (SIF), 150 µM, 37 °C, 24 h, read-out: unmetabolized peptide remaining (remained stable)
Non-standard residues stand in square brackets, D forms with d. Residues, ends and D or L forms follow the SMILES beside them.
EXPERIMENTAL_ENDPOINT: remaining at 24 h, 150 µM

query: # query: remaining at 24 h, 150 µM of entry CC(C)C[C@@H](NC(=O)[C@H](NC(=O)[C@H]1CCCN1)[C@H](C)O)C(=O)N[C@H](Cc1c[nH]cn1)C(=O)N[C@@H](C(=O)N[C@H](Cc1c[nH]cn1)C(=O)N[C@H](CC(N)=O)C(=O)N[C@H](CCCNC(=N)N)C(=O)N[C@H](CCCNC(=N)N)C(=O)N[C@H](CCCNC(=N)N)C(=O)N[C@H](CCCNC(=N)N)C(=O)N[C@H](CCCNC(=N)N)C(N)=O)[C@H](C)O [RD2, ptlhthnrrrrr] (H-[dP][dT][dL][dH][dT][dH][dN][dR][dR][dR][dR][dR]-NH2)
result: ≥ 97%

###

# EXPERIMENTAL_SYSTEM: UniProt:P33261
# Sequence (P33261 whole entry, canonical isoform): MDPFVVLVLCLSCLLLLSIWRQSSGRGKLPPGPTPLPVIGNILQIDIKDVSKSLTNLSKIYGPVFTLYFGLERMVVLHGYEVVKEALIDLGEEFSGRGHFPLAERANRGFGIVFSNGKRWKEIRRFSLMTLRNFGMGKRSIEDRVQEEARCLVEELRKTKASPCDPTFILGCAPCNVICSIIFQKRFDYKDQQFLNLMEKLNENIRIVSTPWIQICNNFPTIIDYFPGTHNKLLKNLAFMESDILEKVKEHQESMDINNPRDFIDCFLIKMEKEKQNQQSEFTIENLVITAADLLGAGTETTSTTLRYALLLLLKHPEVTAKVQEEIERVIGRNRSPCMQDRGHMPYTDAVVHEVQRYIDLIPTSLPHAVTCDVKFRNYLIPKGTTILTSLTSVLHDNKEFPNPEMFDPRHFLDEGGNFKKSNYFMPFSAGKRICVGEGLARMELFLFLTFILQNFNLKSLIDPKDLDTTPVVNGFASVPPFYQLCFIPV
# MEASUREMENT_NOTES: CYP isoform inhibition in human liver microsomes (Cyprotex)
# APPLIED_CONDITIONS: human, human liver microsomes
Non-standard residues stand in square brackets, D forms with d. Residues, ends and D or L forms follow the SMILES beside them.
EXPERIMENTAL_ENDPOINT: inhibition at 10 µM (%)
Just the number in %, nothing appended.

query: # query: inhibition at 10 µM of entry CC(C)C[C@@H](NC(=O)[C@H](NC(=O)[C@H]1CCCN1)[C@H](C)O)C(=O)N[C@H](Cc1c[nH]cn1)C(=O)N[C@@H](C(=O)N[C@H](Cc1c[nH]cn1)C(=O)N[C@H](CC(N)=O)C(=O)N[C@H](CCCNC(=N)N)C(=O)N[C@H](CCCNC(=N)N)C(=O)N[C@H](CCCNC(=N)N)C(=O)N[C@H](CCCNC(=N)N)C(=O)N[C@H](CCCNC(=N)N)C(N)=O)[C@H](C)O [RD2, ptlhthnrrrrr] (H-[dP][dT][dL][dH][dT][dH][dN][dR][dR][dR][dR][dR]-NH2)
result: -5.77

###

# EXPERIMENTAL_SYSTEM: CYP1A (Homo sapiens)
# Sequence (P05177 2-516): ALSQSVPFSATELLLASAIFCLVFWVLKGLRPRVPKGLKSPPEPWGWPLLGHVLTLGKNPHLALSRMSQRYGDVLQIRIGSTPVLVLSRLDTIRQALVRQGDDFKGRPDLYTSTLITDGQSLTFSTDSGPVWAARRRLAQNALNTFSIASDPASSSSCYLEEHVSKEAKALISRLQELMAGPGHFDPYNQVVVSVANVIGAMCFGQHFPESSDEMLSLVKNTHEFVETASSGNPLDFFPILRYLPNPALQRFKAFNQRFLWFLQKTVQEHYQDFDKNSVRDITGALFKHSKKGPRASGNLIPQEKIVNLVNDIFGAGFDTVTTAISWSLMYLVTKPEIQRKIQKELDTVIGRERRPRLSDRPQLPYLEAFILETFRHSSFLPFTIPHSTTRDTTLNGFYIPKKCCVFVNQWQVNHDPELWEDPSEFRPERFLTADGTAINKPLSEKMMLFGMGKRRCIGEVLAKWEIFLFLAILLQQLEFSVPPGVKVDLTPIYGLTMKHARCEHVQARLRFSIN
# MEASUREMENT_NOTES: CYP isoform inhibition in human liver microsomes (Cyprotex)
# APPLIED_CONDITIONS: human, human liver microsomes
Non-standard residues stand in square brackets, D forms with d. Residues, ends and D or L forms follow the SMILES beside them.
EXPERIMENTAL_ENDPOINT: inhibition at 25 µM (%)
Just the number in %, nothing appended.

query: # query: inhibition at 25 µM of entry CC(C)C[C@@H](NC(=O)[C@H](NC(=O)[C@H]1CCCN1)[C@H](C)O)C(=O)N[C@H](Cc1c[nH]cn1)C(=O)N[C@@H](C(=O)N[C@H](Cc1c[nH]cn1)C(=O)N[C@H](CC(N)=O)C(=O)N[C@H](CCCNC(=N)N)C(=O)N[C@H](CCCNC(=N)N)C(=O)N[C@H](CCCNC(=N)N)C(=O)N[C@H](CCCNC(=N)N)C(=O)N[C@H](CCCNC(=N)N)C(N)=O)[C@H](C)O [RD2, ptlhthnrrrrr] (H-[dP][dT][dL][dH][dT][dH][dN][dR][dR][dR][dR][dR]-NH2)
result: -0.198
